Target: Sodium/potassium-transporting ATPase (Homo sapiens) (UniProt P05023+P14415+P05026+P50993+P54709+P13637+Q13733+P54710)
Assay: Inhibition of Na(+)/K(+) ATPase in human HeLa cells at 10 uM after 24 hrs by immunoblotting
Type: cell-based
Active and inactive are the calls of the source. The rule behind the calls is not given here.
Could you please pick one outcome from this set? yes (1) for active, no (0) for inactive

Incoming: Hello, I am checking results. What call was entered for C[C@H]1O[C@@H](O[C@H]2[C@@H](O)C[C@H](O[C@H]3[C@@H](O)C[C@H](O[C@H]4CC[C@@]5(C)[C@H](CC[C@@H]6[C@@H]5C[C@@H](O)[C@]5(C)[C@@H](C7=CC(=O)O/C7=C\c7cccc(Cl)c7Cl)CC[C@]65O)C4)O[C@@H]3C)O[C@@H]2C)C[C@H](O)[C@@H]1O ?
Outgoing: no (0)

Incoming: Another: COc1ccc(/C=C2\OC(=O)C=C2[C@H]2CC[C@]3(O)[C@@H]4CC[C@@H]5C[C@@H](O[C@H]6C[C@H](O)[C@H](O[C@H]7C[C@H](O)[C@H](O[C@H]8C[C@H](O)[C@H](O)[C@@H](C)O8)[C@@H](C)O7)[C@@H](C)O6)CC[C@]5(C)[C@H]4C[C@@H](O)[C@]23C)cc1
Outgoing: no (0)

Incoming: Moving on to C[C@H]1O[C@@H](O[C@H]2[C@@H](O)C[C@H](O[C@H]3[C@@H](O)C[C@H](O[C@H]4CC[C@@]5(C)[C@H](CC[C@@H]6[C@@H]5C[C@@H](O)[C@]5(C)[C@@H](C7=CC(=O)O/C7=C\c7ccc(Cl)cc7)CC[C@]65O)C4)O[C@@H]3C)O[C@@H]2C)C[C@H](O)[C@@H]1O
Outgoing: no (0)

Incoming: Cool, now C[C@H]1O[C@@H](O[C@H]2[C@@H](O)C[C@H](O[C@H]3[C@@H](O)C[C@H](O[C@H]4CC[C@@]5(C)[C@H](CC[C@@H]6[C@@H]5C[C@@H](O)[C@]5(C)[C@@H](C7=CC(=O)O/C7=C\c7ccc(N(C)C)cc7)CC[C@]65O)C4)O[C@@H]3C)O[C@@H]2C)C[C@H](O)[C@@H]1O
Outgoing: yes (1)

Incoming: Entry C[C@H]1O[C@@H](O[C@H]2[C@@H](O)C[C@H](O[C@H]3[C@@H](O)C[C@H](O[C@H]4CC[C@@]5(C)[C@H](CC[C@@H]6[C@@H]5C[C@@H](O)[C@]5(C)[C@@H](C7=CC(=O)O/C7=C\c7ccc(F)cc7)CC[C@]65O)C4)O[C@@H]3C)O[C@@H]2C)C[C@H](O)[C@@H]1O please
Outgoing: no (0)

Incoming: Field entry: C[C@H]1O[C@@H](O[C@H]2[C@@H](O)C[C@H](O[C@H]3[C@@H](O)C[C@H](O[C@H]4CC[C@@]5(C)[C@H](CC[C@@H]6[C@@H]5C[C@@H](O)[C@]5(C)[C@@H](C7=CC(=O)O/C7=C\c7cccc([N+](=O)[O-])c7)CC[C@]65O)C4)O[C@@H]3C)O[C@@H]2C)C[C@H](O)[C@@H]1O
Outgoing: no (0)
